STUDY_TARGET: hCA II (Homo sapiens)
Construct: cytosolic isoform
PROCEDURE_DETAILS: stopped-flow CA inhibition assay
QUANTITY: Ki (nM)

(A) N=C(N)NC(=N)Nc1ccc(S(N)(=O)=O)cc1
(B) N=C(N)NC(=N)Nc1cccc(S(N)(=O)=O)c1
Task: For A and B , which recorded Ki is lower? Let me know the label of the one you choose.
Result: A
(A: 135 nM, B: 265 nM)

* * *

STUDY_TARGET: hCA I (Homo sapiens)
Construct: cytosolic isoform
Sequence (P00915 2-261): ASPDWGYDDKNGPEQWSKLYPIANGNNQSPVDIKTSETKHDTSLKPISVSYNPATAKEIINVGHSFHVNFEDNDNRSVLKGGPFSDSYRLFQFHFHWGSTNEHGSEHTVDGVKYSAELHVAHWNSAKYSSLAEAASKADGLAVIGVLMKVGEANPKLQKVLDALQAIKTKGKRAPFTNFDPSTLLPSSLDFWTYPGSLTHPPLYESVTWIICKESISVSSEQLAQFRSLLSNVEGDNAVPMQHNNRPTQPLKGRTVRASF
PROCEDURE_DETAILS: stopped-flow CA inhibition assay
QUANTITY: Ki (nM)

(P) N=C(N)NC(=N)Nc1cccc(S(N)(=O)=O)c1
(Q) N=C(N)NC(=N)Nc1ccc(S(N)(=O)=O)cc1
Task: For P and Q , which recorded Ki is lower? Let me know the label of the one you choose.
Result: Q
(Q: 361 nM, P: 707 nM)
